Where do these numbers come from? They come from PubChem BioAssay (NCI).

system: HT29 colon; test: NCI-60 one-dose screen, 48 h; settings: 10 µM unless noted
This is part of a sample that, as a whole, favours compounds with a hit. Of some 83,000 tested, about 20% had one in any assay. Activity calls are given as the source filed them. Rule for the calls: active = growth percent below 10; inactive = the rest.
Outcomes: active, inactive

1. CC(=O)c1c(Nc2cccc(F)c2)[nH]c2c(Cl)cc(Cl)c(Cl)c2c1=O	active
2. Cn1cc(-c2nc3c(F)cc4[nH]ncc4c3c3c2CCCC3)c(C(F)(F)F)n1	inactive
3. N#C/C(=C\c1ccc(-c2cccc(Cl)c2)o1)C(=O)Nc1ncc(Cc2ccc(Cl)cc2)s1	inactive
4. O=c1cc(CP(=O)(O)O)c2cc(O)c(-c3ccccc3)cc2o1	inactive
5. N#Cc1nn(-c2cc(=O)[nH]c3ccc(Br)cc23)c(N)c1C#N	inactive
6. O=C(Nc1cccnc1Nc1ccccc1)c1cn(Cc2cccc(Oc3ccccc3)c2)nn1	inactive
7. CN1c2ccccc2S(=O)(=O)n2c(SCC(=O)Nc3nc4ccc(F)cc4s3)nnc21	inactive
8. Cc1oc(-c2ccc(Cl)cc2)nc1C1=NN(C(=O)c2ccncc2)C(c2ccccc2)C1 (centres undefined)	inactive
9. COc1cc(/C=C/C(=O)c2cc(OC)c(OC)c(OC)c2)ccc1Oc1nc2c(c(=O)n(C)c(=O)n2C)n1C	active

* * *

tested on: SF-295 CNS; assay: NCI-60 one-dose screen, 48 h (100 = growth as untreated, 0 = no growth, -100 = all killed); conditions: 10 µM unless noted
The panel holds about 83,000 compounds, 20% with a hit somewhere; the sample as a whole holds those more often.
recordedEndpoint: growth (%)

1) O=S(=O)(Nc1cc(F)cc(F)c1)c1ccc(-c2cnc(C3CC3)o2)cc1	20.9
2) C=C(C)[C@@H]1CC[C@]2(C(=O)Nc3ccccn3)CC[C@]3(C)[C@H](CC[C@@H]4[C@@]5(C)CCCNC(C)(C)[C@@H]5CC[C@]43C)[C@@H]12	44.4
3) CCOC(=O)c1c(C)nc2ccccc2c1/C=C/c1ccc(F)cc1	67.7
4) CC(C)c1ccc2c(c1)CC[C@H]1[C@](C)(C(=O)OCC#CCN3CCCC3)CCC[C@]21C	97.5
5) O=c1cc(C(F)(F)F)c2cc(-c3cc4ccccc4c(=O)o3)c(O)cc2o1	89.4
6) CCN1CCN(CCNc2nccc(-c3c(-c4ccc(F)c(O)c4)nc4occn34)n2)S1(=O)=O	28.9
7) CCOC(=O)C1=C(CCl)N(C)C(=O)NC1c1ccc2c(c1)OCO2 (centres undefined)	95.1
8) OC1(c2ccccc2)c2ccccc2N(c2ccccc2)c2ccc(Cl)cc21 (centres undefined)	-57.6
9) O=CN1N=C(c2cccc(Nc3ccnc4cc(Cl)ccc34)c2)CC1c1ccc(Cl)cc1 (centres undefined)	11.7
10) CCN(CC)CCn1c2ccc(OC)cc2c2sc3cc(O)ccc3c(=O)c21	17.9
11) O=C(NCc1ccc(Cn2c(=O)sn(-c3ccccc3)c2=O)cc1)OCc1ccc2cccc(O)c2n1	50.2
12) CCOC(=O)c1cn2ncnc(Oc3ccc(NC(=O)NC4CC4)c(Cl)c3)c2c1C	84.8
13) CCN(CC)CCOc1ccc2c(-c3ccccc3)c(-c3ccc(OC)cc3)c(=O)oc2c1	62.9
14) COc1ccc(/C=C(/C(=O)N2CCNCC2)c2cc(OC)c(OC)c(OC)c2)cc1O	66.3
15) O=C1C(Cl)=C(Nc2ccccc2)C(=O)c2ccccc21	90
16) CCCCn1c(NC(C)=O)c(S(=O)(=O)c2ccccc2)c2nc3ccccc3nc21	111
17) CC(C)=CC(=O)N[C@H]1CC[C@]2(C)C3CC[C@]4(C)C(C(C)N(C)C)=CCC4C3CCC2[C@H]1O (some centres undefined)	59.2
18) O=C(NN1C(=O)CSC1c1cccc([N+](=O)[O-])c1)c1ccc(NC(=O)c2ccccn2)cc1 (centres undefined)	97.2
19) COC(=O)c1ccc2c(c1)c1c(C)c3cnccc3c(C)c1n2C	-10.5
